Target: Human immunodeficiency virus type 1 reverse transcriptase (Human immunodeficiency virus 1, UniProt Q72547)
Assay: Inhibitory activity against HIV-1 reverse transcriptase enzyme
Field: IC50. Provide a value for each of the compounds that follow.
The reply should contain only the number, in nM.

Look up IC50: CN(C)c1ccc2c(c1)C(C#CC1CC1)(C(F)(F)F)OC(=O)N2 (centres undefined)
816

Look up IC50: O=C1Nc2cc3ccccc3cc2C(C#CC2CC2)(C(F)(F)F)O1 (centres undefined)
1910

Look up IC50: O=C1Nc2ccccc2C(C#CC2CC2)(C(F)(F)F)O1 (centres undefined)
478

Look up IC50: CC(C)c1ccc2c(c1)C(C#CC1CC1)(C(F)(F)F)OC(=O)N2 (centres undefined)
1960

Look up IC50: O=C1Nc2c(F)ccc(F)c2C(C#CC2CC2)(C(F)(F)F)O1 (centres undefined)
796

Look up IC50: O=C1Nc2cc(F)c(F)c(F)c2C(C#CC2CC2)(C(F)(F)F)O1 (centres undefined)
442

Look up IC50: Cc1ccc2c(c1)C(C#CC1CC1)(C(F)(F)F)OC(=O)N2 (centres undefined)
133

Look up IC50: O=C1Nc2ccc(F)cc2C(C#CC2CC2)(C(F)(F)F)O1 (centres undefined)
190

====

Field: pIC50. Provide a value for each of the molecules that follow.
Target: Human immunodeficiency virus type 1 reverse transcriptase (Human immunodeficiency virus 1, UniProt Q72547)
# pIC50: negative log10 of molar concentration; output just the value

Look up pIC50: O=C1Nc2ccc(OC(F)(F)F)cc2C(C#CC2CC2)(C(F)(F)F)O1 (stereo unspecified)
5.90

Look up pIC50: O=C1Nc2ccc(F)c(F)c2C(C#CC2CC2)(C(F)(F)F)O1 (stereo unspecified)
7.08

Look up pIC50: O=C1Nc2c(F)cc(F)c(F)c2C(C#CC2CC2)(C(F)(F)F)O1 (stereo unspecified)
6.10

Look up pIC50: COc1ccc2c(c1)C(C#CC1CC1)(C(F)(F)F)OC(=O)N2 (stereo unspecified)
6.88

====

Target or system Human immunodeficiency virus 1: recorded IC90 listed per item.
The reply should contain only the number, in nM.

Look up IC90: O=C1Nc2c(cc(F)c(F)c2F)C(C#CC2CC2)(C(F)(F)F)O1 (stereo not given)
418

Look up IC90: O=C1Nc2cc3ccccc3cc2C(C#CC2CC2)(C(F)(F)F)O1 (stereo not given)
26.9

Look up IC90: O=C1Nc2ccc(-c3ccccc3)cc2C(C#CC2CC2)(C(F)(F)F)O1 (stereo not given)
249

Look up IC90: O=C1Nc2cc(F)c(F)c(F)c2C(C#CC2CC2)(C(F)(F)F)O1 (stereo not given)
19.6

Look up IC90: O=C1Nc2ccc(F)cc2C(C#CC2CC2)(C(F)(F)F)O1 (stereo not given)
7.35

Look up IC90: O=C1Nc2c(F)cc(F)c(F)c2C(C#CC2CC2)(C(F)(F)F)O1 (stereo not given)
14

Look up IC90: COc1ccc2c(c1)C(C#CC1CC1)(C(F)(F)F)OC(=O)N2 (stereo not given)
2

Look up IC90: CC(C)c1ccc2c(c1)C(C#CC1CC1)(C(F)(F)F)OC(=O)N2 (stereo not given)
27.8

Look up IC90: O=C1Nc2ccccc2C(C#CC2CC2)(C(F)(F)F)O1 (stereo not given)
10.3

Look up IC90: O=C1Nc2c(F)ccc(F)c2C(C#CC2CC2)(C(F)(F)F)O1 (stereo not given)
18

Look up IC90: O=C1Nc2c(Cl)cc(Cl)cc2C(C#CC2CC2)(C(F)(F)F)O1 (stereo not given)
28.6

Look up IC90: O=C1Nc2ccc(OC(F)(F)F)cc2C(C#CC2CC2)(C(F)(F)F)O1 (stereo not given)
18.9

Look up IC90: O=C1Nc2c(F)cc(Cl)cc2C(C#CC2CC2)(C(F)(F)F)O1 (stereo not given)
7.19

Look up IC90: Cc1ccc2c(c1)C(C#CC1CC1)(C(F)(F)F)OC(=O)N2 (stereo not given)
7.11

Look up IC90: CN(C)c1ccc2c(c1)C(C#CC1CC1)(C(F)(F)F)OC(=O)N2 (stereo not given)
8.33

// provenance: ChEMBL document CHEMBL1132524
